Target: CYP1A2 (Homo sapiens, UniProt P05177)
Sequence (P05177 whole entry): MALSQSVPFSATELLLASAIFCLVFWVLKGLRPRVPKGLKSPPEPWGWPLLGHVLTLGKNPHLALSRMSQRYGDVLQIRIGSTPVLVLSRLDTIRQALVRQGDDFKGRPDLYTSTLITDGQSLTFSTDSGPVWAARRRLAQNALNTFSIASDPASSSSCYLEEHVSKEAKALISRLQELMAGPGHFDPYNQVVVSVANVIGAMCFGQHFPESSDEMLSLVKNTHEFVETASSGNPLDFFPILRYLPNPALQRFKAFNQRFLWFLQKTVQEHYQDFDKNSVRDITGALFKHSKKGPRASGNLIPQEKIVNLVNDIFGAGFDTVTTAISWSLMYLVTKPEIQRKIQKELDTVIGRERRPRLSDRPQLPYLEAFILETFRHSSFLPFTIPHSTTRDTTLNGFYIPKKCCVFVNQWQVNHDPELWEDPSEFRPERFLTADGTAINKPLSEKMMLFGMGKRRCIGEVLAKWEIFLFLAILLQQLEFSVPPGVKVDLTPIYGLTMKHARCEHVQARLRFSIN
Test: Inhibition of CYP1A2-mediated phenacetin O-deethylase in ultrapooled human liver microsomes (cocktail, LC-MS/MS)
Format: in vitro ADME
Conditions: read-out: IC50 (μM) With Preincubation, CYP1A2 phenacetin O-deethylase; ultrapooled human liver microsomes; 30-min preincubation with NADPH
Experimental: The inhibitory potentials (IC50 values) of APINACA and typical CYP inhibitors on CYP 1A2, 2A6, 2C8, 2C9, 2C19, 2D6, and 3A4 activities in pooled human liver microsomes were evaluated following our previous method using a cocktail of CYP substrates, followed by LC–MS/MS [43]. […] After 3 min of preincubation at 37 °C, the reaction mixtures were incubated for 15 min at 37 °C with the addition of NADPH in a shaking water bath. […] Aliquots (5 μL) of the diluted supernatants were analyzed by LC–MS/MS. […]

structure as smiles: CCCCCn1nc(C(=O)NC23CC4CC(CC(C4)C2)C3)c2ccccc21
IC50: > 100 µM
